ASSAY OVERVIEW: xn = mol fraction of the nth substance listed
APPLIED CONDITIONS: 298.15 K, Ring tensiometer, x1 = 0.7
Short version: surface tension liquid-gas at least 40 mN/m is Criterion met, less is Criterion not met.

COMPOUND	ANSWER LABEL
CCCCn1cc[n+](C)c1.COP(=O)([O-])OC [1-butyl-3-methyl-1H-imidazolium dimethylphosphate] + O	Criterion not met
CCOP(=O)([O-])OCC.CCn1cc[n+](C)c1 [1-ethyl-3-methylimidazolium diethyl phosphate] + O	Criterion not met
COP(=O)([O-])OC.Cn1cc[n+](C)c1 [1,3-dimethylimidazolium dimethylphosphate] + O	Criterion met
CCn1cc[n+](C)c1.COP(=O)([O-])OC [1-ethyl-3-methylimidazolium dimethylphosphate] + O	Criterion met
CCOP(=O)([O-])OCC.CCn1cc[n+](CC)c1 [1,3-diethyl-1H-imidazol-3-ium diethyl phosphate] + O	Criterion not met
CCOP(=O)([O-])OCC.CCn1cc[n+](C)c1 [1-ethyl-3-methylimidazolium diethyl phosphate] + CO	Criterion not met
CCCCn1cc[n+](CC)c1.CCOP(=O)([O-])OCC [1-butyl-3-ethyl-1H-imidazol-3-ium diethyl phosphate] + O	Criterion not met
CCCCOP(=O)([O-])OCCCC.CCCCn1cc[n+](C)c1 [1-butyl-3-methylimidazolium dibutyl phosphate] + CCO	Criterion not met
CCCCn1cc[n+](C)c1.COP(=O)([O-])OC [1-butyl-3-methyl-1H-imidazolium dimethylphosphate] + CCO	Criterion not met
COP(=O)([O-])OC.Cn1cc[n+](C)c1 [1,3-dimethylimidazolium dimethylphosphate] + CCO	Criterion not met
CCOP(=O)([O-])OCC.CCn1cc[n+](CC)c1 [1,3-diethyl-1H-imidazol-3-ium diethyl phosphate] + CCO	Criterion not met
CCCCOP(=O)([O-])OCCCC.CCCCn1cc[n+](C)c1 [1-butyl-3-methylimidazolium dibutyl phosphate] + CO	Criterion not met
CCOP(=O)([O-])OCC.CCn1cc[n+](CC)c1 [1,3-diethyl-1H-imidazol-3-ium diethyl phosphate] + CO	Criterion not met

###

ASSAY OVERVIEW: xn = mol fraction of the nth substance listed
APPLIED CONDITIONS: 298.15 K, Ring tensiometer, x1 = 0.9

COMPOUND	UNIT NAME	surface tension liquid-gas
CCCCn1cc[n+](CC)c1.CCOP(=O)([O-])OCC [1-butyl-3-ethyl-1H-imidazol-3-ium diethyl phosphate] + CCO	mN/m	31.4
CCn1cc[n+](C)c1.COP(=O)([O-])OC [1-ethyl-3-methylimidazolium dimethylphosphate] + O	mN/m	44.4
CCCCn1cc[n+](C)c1.COP(=O)([O-])OC [1-butyl-3-methyl-1H-imidazolium dimethylphosphate] + CCO	mN/m	36
CCn1cc[n+](C)c1.COP(=O)([O-])OC [1-ethyl-3-methylimidazolium dimethylphosphate] + CO	mN/m	42.4
CCCCn1cc[n+](CC)c1.CCOP(=O)([O-])OCC [1-butyl-3-ethyl-1H-imidazol-3-ium diethyl phosphate] + CO	mN/m	32.2
CCOP(=O)([O-])OCC.CCn1cc[n+](CC)c1 [1,3-diethyl-1H-imidazol-3-ium diethyl phosphate] + CCO	mN/m	34.1
CCCCn1cc[n+](C)c1.COP(=O)([O-])OC [1-butyl-3-methyl-1H-imidazolium dimethylphosphate] + CO	mN/m	38.1
CCCCOP(=O)([O-])OCCCC.CCCCn1cc[n+](C)c1 [1-butyl-3-methylimidazolium dibutyl phosphate] + CO	mN/m	29.5
CCOP(=O)([O-])OCC.CCn1cc[n+](C)c1 [1-ethyl-3-methylimidazolium diethyl phosphate] + O	mN/m	37.3
CCOP(=O)([O-])OCC.CCn1cc[n+](CC)c1 [1,3-diethyl-1H-imidazol-3-ium diethyl phosphate] + CO	mN/m	35.9
CCn1cc[n+](C)c1.COP(=O)([O-])OC [1-ethyl-3-methylimidazolium dimethylphosphate] + CCO	mN/m	39.3
CCCCOP(=O)([O-])OCCCC.CCCCn1cc[n+](C)c1 [1-butyl-3-methylimidazolium dibutyl phosphate] + O	mN/m	29.5
CCOP(=O)([O-])OCC.CCn1cc[n+](CC)c1 [1,3-diethyl-1H-imidazol-3-ium diethyl phosphate] + O	mN/m	35.9
COP(=O)([O-])OC.Cn1cc[n+](C)c1 [1,3-dimethylimidazolium dimethylphosphate] + CO	mN/m	46.2
COP(=O)([O-])OC.Cn1cc[n+](C)c1 [1,3-dimethylimidazolium dimethylphosphate] + CCO	mN/m	41.4
CCOP(=O)([O-])OCC.CCn1cc[n+](C)c1 [1-ethyl-3-methylimidazolium diethyl phosphate] + CO	mN/m	37.3
CCCCOP(=O)([O-])OCCCC.CCCCn1cc[n+](C)c1 [1-butyl-3-methylimidazolium dibutyl phosphate] + CCO	mN/m	28.8
CCCCn1cc[n+](CC)c1.CCOP(=O)([O-])OCC [1-butyl-3-ethyl-1H-imidazol-3-ium diethyl phosphate] + O	mN/m	32.2
CCCCn1cc[n+](C)c1.COP(=O)([O-])OC [1-butyl-3-methyl-1H-imidazolium dimethylphosphate] + O	mN/m	38.1
CCOP(=O)([O-])OCC.CCn1cc[n+](C)c1 [1-ethyl-3-methylimidazolium diethyl phosphate] + CCO	mN/m	34.8
COP(=O)([O-])OC.Cn1cc[n+](C)c1 [1,3-dimethylimidazolium dimethylphosphate] + O	mN/m	48.6

###

ASSAY OVERVIEW: xn = mol fraction of the nth substance listed
APPLIED CONDITIONS: 298.15 K, Ring tensiometer, x1 = 0.3
Below, each entry is listed with its recorded surface tension liquid-gas.

COMPOUND	surface tension liquid-gas [mN/m]
COP(=O)([O-])OC.Cn1cc[n+](C)c1 [1,3-dimethylimidazolium dimethylphosphate] + CO	33.1
CCn1cc[n+](C)c1.COP(=O)([O-])OC [1-ethyl-3-methylimidazolium dimethylphosphate] + CO	31.8
CCn1cc[n+](C)c1.COP(=O)([O-])OC [1-ethyl-3-methylimidazolium dimethylphosphate] + CCO	25.5
CCCCn1cc[n+](C)c1.COP(=O)([O-])OC [1-butyl-3-methyl-1H-imidazolium dimethylphosphate] + CO	30.8
CCCCn1cc[n+](C)c1.COP(=O)([O-])OC [1-butyl-3-methyl-1H-imidazolium dimethylphosphate] + O	40.2
COP(=O)([O-])OC.Cn1cc[n+](C)c1 [1,3-dimethylimidazolium dimethylphosphate] + CCO	26.1
CCn1cc[n+](C)c1.COP(=O)([O-])OC [1-ethyl-3-methylimidazolium dimethylphosphate] + O	46.4
CCCCOP(=O)([O-])OCCCC.CCCCn1cc[n+](C)c1 [1-butyl-3-methylimidazolium dibutyl phosphate] + CO	28.1
CCOP(=O)([O-])OCC.CCn1cc[n+](CC)c1 [1,3-diethyl-1H-imidazol-3-ium diethyl phosphate] + CCO	24.6

###

ASSAY OVERVIEW: xn = mol fraction of the nth substance listed
APPLIED CONDITIONS: 298.15 K, Ring tensiometer, x1 = 0.1

MOLECULE	surface tension liquid-gas (mN/m)
CCOP(=O)([O-])OCC.CCn1cc[n+](C)c1 [1-ethyl-3-methylimidazolium diethyl phosphate] + CCO	22.6
CCn1cc[n+](C)c1.COP(=O)([O-])OC [1-ethyl-3-methylimidazolium dimethylphosphate] + CO	26.7
CCCCOP(=O)([O-])OCCCC.CCCCn1cc[n+](C)c1 [1-butyl-3-methylimidazolium dibutyl phosphate] + CCO	22.5
CCCCn1cc[n+](C)c1.COP(=O)([O-])OC [1-butyl-3-methyl-1H-imidazolium dimethylphosphate] + CO	26.5
CCOP(=O)([O-])OCC.CCn1cc[n+](C)c1 [1-ethyl-3-methylimidazolium diethyl phosphate] + CO	26.4
CCCCn1cc[n+](CC)c1.CCOP(=O)([O-])OCC [1-butyl-3-ethyl-1H-imidazol-3-ium diethyl phosphate] + CCO	22.6
CCCCn1cc[n+](C)c1.COP(=O)([O-])OC [1-butyl-3-methyl-1H-imidazolium dimethylphosphate] + CCO	22.8
CCCCOP(=O)([O-])OCCCC.CCCCn1cc[n+](C)c1 [1-butyl-3-methylimidazolium dibutyl phosphate] + O	28.2
CCOP(=O)([O-])OCC.CCn1cc[n+](CC)c1 [1,3-diethyl-1H-imidazol-3-ium diethyl phosphate] + CO	26.4

###

ASSAY OVERVIEW: xn = mol fraction of the nth substance listed
APPLIED CONDITIONS: 298.15 K, Ring tensiometer, x1 = 0.2
Numbers after ± are expanded uncertainties.
Overview of recorded surface tension liquid-gas for various compounds

COMPOUND	surface tension liquid-gas
CCCCn1cc[n+](C)c1.COP(=O)([O-])OC [1-butyl-3-methyl-1H-imidazolium dimethylphosphate] + CCO	23.6 ± 0.4 mN/m
CCOP(=O)([O-])OCC.CCn1cc[n+](C)c1 [1-ethyl-3-methylimidazolium diethyl phosphate] + CCO	23.6 ± 0.4 mN/m
CCCCOP(=O)([O-])OCCCC.CCCCn1cc[n+](C)c1 [1-butyl-3-methylimidazolium dibutyl phosphate] + O	28.9 ± 0.4 mN/m
CCCCn1cc[n+](CC)c1.CCOP(=O)([O-])OCC [1-butyl-3-ethyl-1H-imidazol-3-ium diethyl phosphate] + O	33.1 ± 0.5 mN/m
CCOP(=O)([O-])OCC.CCn1cc[n+](C)c1 [1-ethyl-3-methylimidazolium diethyl phosphate] + CO	28.9 ± 0.4 mN/m
CCOP(=O)([O-])OCC.CCn1cc[n+](CC)c1 [1,3-diethyl-1H-imidazol-3-ium diethyl phosphate] + CCO	23.4 ± 0.4 mN/m
CCCCn1cc[n+](CC)c1.CCOP(=O)([O-])OCC [1-butyl-3-ethyl-1H-imidazol-3-ium diethyl phosphate] + CCO	23.6 ± 0.4 mN/m
CCOP(=O)([O-])OCC.CCn1cc[n+](C)c1 [1-ethyl-3-methylimidazolium diethyl phosphate] + O	38.9 ± 0.5 mN/m
CCCCn1cc[n+](C)c1.COP(=O)([O-])OC [1-butyl-3-methyl-1H-imidazolium dimethylphosphate] + O	40.9 ± 0.6 mN/m
CCCCn1cc[n+](C)c1.COP(=O)([O-])OC [1-butyl-3-methyl-1H-imidazolium dimethylphosphate] + CO	29.2 ± 0.4 mN/m
CCCCn1cc[n+](CC)c1.CCOP(=O)([O-])OCC [1-butyl-3-ethyl-1H-imidazol-3-ium diethyl phosphate] + CO	28.4 ± 0.4 mN/m
CCCCOP(=O)([O-])OCCCC.CCCCn1cc[n+](C)c1 [1-butyl-3-methylimidazolium dibutyl phosphate] + CCO	23.5 ± 0.4 mN/m
CCOP(=O)([O-])OCC.CCn1cc[n+](CC)c1 [1,3-diethyl-1H-imidazol-3-ium diethyl phosphate] + O	37.4 ± 0.5 mN/m
CCCCOP(=O)([O-])OCCCC.CCCCn1cc[n+](C)c1 [1-butyl-3-methylimidazolium dibutyl phosphate] + CO	27.5 ± 0.4 mN/m
CCn1cc[n+](C)c1.COP(=O)([O-])OC [1-ethyl-3-methylimidazolium dimethylphosphate] + O	47 ± 0.63 mN/m
